target: UniProtKB P25101; test: Inhibitory activity against human Endothelin A receptor in chinese hamster ovary cells
observation_type: Ki
Record the result as a number with its unit.

Exam item: Which Ki value is on record for CCCc1cc(C(=O)O)ccc1OC(C(=O)NS(=O)(=O)c1ccc(C(C)C)cc1)c1ccc2c(c1)OCO2 (stereo unspecified) ?
Marked response: 130 pM

---

target: Endothelin-1 receptor (Homo sapiens); experiment: Radioligand binding selectivity to human Endothelin A receptor in chinese hamster ovary cells
Sequence (P25101 whole entry): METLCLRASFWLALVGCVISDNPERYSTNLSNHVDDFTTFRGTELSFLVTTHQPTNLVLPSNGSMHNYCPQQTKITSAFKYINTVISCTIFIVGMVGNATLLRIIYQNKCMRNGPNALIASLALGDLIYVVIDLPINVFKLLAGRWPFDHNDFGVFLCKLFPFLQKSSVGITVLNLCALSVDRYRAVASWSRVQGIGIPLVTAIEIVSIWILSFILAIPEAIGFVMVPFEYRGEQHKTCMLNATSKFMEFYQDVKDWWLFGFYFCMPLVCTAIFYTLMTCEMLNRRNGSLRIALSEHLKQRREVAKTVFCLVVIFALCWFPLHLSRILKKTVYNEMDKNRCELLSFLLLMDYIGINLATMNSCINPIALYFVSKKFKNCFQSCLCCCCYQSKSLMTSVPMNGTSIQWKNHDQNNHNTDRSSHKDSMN
observation_type: pIC50
Kindly note that pIC50 refers to -log10 of the concentration in mol/L and answer with the value alone.

Exam item: Which pIC50 value is on record for CCCCN(CCC)C(=O)CN1C[C@@H](c2ccc3c(c2)OCO3)[C@H](C(=O)O)[C@H]1c1ccc(OC)cc1 ?
Marked response: 9.09

Exam item: Which pIC50 value is on record for CCCN(CCC)C(=O)CN1C[C@@H](c2ccc3c(c2)OCO3)[C@H](C(=O)O)[C@H]1c1ccc(OC)cc1 ?
Marked response: 9.26

Exam item: Which pIC50 value is on record for CCCNC(=O)CN1C[C@@H](c2ccc3c(c2)OCO3)[C@H](C(=O)O)[C@H]1c1ccc(OC)cc1 ?
Marked response: 7.34

Exam item: Which pIC50 value is on record for CCCN(C)C(=O)CN1C[C@@H](c2ccc3c(c2)OCO3)[C@H](C(=O)O)[C@H]1c1ccc(OC)cc1 ?
Marked response: 7.67

Exam item: Which pIC50 value is on record for CCCCN(C)C(=O)CN1C[C@@H](c2ccc3c(c2)OCO3)[C@H](C(=O)O)[C@H]1c1ccc(OC)cc1 ?
Marked response: 8.31

---

Would you kindly list IC50 for each of these compounds?
target: Endothelin receptor (Rattus norvegicus, UniProt P26684+P21451); assay: Inhibition of phosphoinositol hydrolysis of MMQ cells.; type: functional, cell-based
Field format: number, assumed nM, no unit text.

Exam item: Which IC50 value is on record for CCCN(C)C(=O)CN1C[C@@H](c2ccc3c(c2)OCO3)[C@H](C(=O)O)[C@H]1c1ccc(OC)cc1 ?
Marked response: 9.12

Exam item: Which IC50 value is on record for COc1ccc([C@@H]2[C@@H](C(=O)O)[C@H](c3ccc4c(c3)OCO4)CN2CC(=O)NCC(C)C)cc1 ?
Marked response: 9.22

Exam item: Which IC50 value is on record for CCCCCCN(C)C(=O)CN1C[C@@H](c2ccc3c(c2)OCO3)[C@H](C(=O)O)[C@H]1c1ccc(OC)cc1 ?
Marked response: 1
